Tested on: TFK-1 cells
Experiment: In vitro cytotoxicity, SRB total protein assay, TFK-1
Format: cell-based
Details: Homo sapiens, read-out: IC50 after 48 and 72 h
measured.endpoint: IC50

Given COc1cc(/C=C/C(=O)CC(=O)/C=C/c2ccc(O)c(OC)c2)ccc1O [free curcumin, curcumin] , state its recorded IC50. ~20 µM

---

System: EGI-1 cells
Assay: In vitro cytotoxicity, SRB total protein assay, EGI-1
Assay type: cell-based
Conditions: Homo sapiens, EGI-1, read-out: IC50 after 48 and 72 h
measured.endpoint: IC50

Request: IC50, test system EGI-1 cells, entry COc1cc(/C=C/C(=O)CC(=O)/C=C/c2ccc(O)c(OC)c2)ccc1O [free curcumin, curcumin] ~20 µM

Where these numbers come from: paper PMC7927141
